assay: Log P (n-octanol/water) of perfuming compounds; settings: Table 10, perfuming compounds having a woody note
Could you please report measured Log P (n-octanol/water) for the items listed next?
Answers are plain numbers.

compound	Log P (n-octanol/water)
CC(=O)CCC1=C(C)CCCC1(C)C	3.99
CCCCCC1C(=O)CCC1CC(=O)OC (single isomer, unassigned; (+))	2.95

Hi! Can you tell me Log P (n-octanol/water) for each of these compounds?
1. C/C=C/C(=O)C1=C(C)CCCC1(C)C
2. CC(=O)C=CC1C(C)CCC(C)C1(C)C (racemic)
3. C/C=C/C(=O)C1C(C)=CCCC1(C)C (racemic)
4. COC1(C)CCC23CC1C(C)(C)C2CCC3C (racemic) [(+−)-8-methoxycedrane]
5. CCCCC(CC)C(=O)OC (racemic) [(+−)-methyl 2-ethylhexanoate]
6. CC1(C)C2C[C@H]3CCC(=O)C=C3[C@@H]1C2
7. CC1CCC2(O1)C(C)(C)CCCC2(C)O (racemic)

3.63
4.62
3.65
7.59
3.37
3.00
3.51

Measured values drawn from patent US11427783B2 for this set.
